Experimental System: T1, human PACAP38 (human, not fully specified; C-terminal lysine is amidated; N-terminal or C-terminal biotin in the HTRF and PC-12 cell binding assays)
T1 construct: synthetic peptide, bought; also called huPACAP (1-38)
T1 peptide: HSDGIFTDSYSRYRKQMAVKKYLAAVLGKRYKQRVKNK
Protocol Text: SPR, Ab immobilised
Catalogue of koff values

INSERT INTO measurements (binder, assay_readout, recorded_value) VALUES
  ('anti-PACAP antibody Ab4 (antibody, human IgG1, kappa, N297A, V domains shown, full-length rabbit/human chimeric antibody) VH: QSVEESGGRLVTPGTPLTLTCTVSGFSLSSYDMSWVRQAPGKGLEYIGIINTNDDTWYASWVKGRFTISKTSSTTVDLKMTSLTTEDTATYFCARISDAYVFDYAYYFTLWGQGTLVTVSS VL: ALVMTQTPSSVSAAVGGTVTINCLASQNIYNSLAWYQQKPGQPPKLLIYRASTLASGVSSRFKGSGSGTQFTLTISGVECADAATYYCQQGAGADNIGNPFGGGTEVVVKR', 'koff', '7.2e-05 s⁻¹');

Task: # query: koff of entry anti-PACAP antibody Ab1 (antibody, human IgG1, kappa, N297A, V domains shown, full-length rabbit/human chimeric antibody) VH: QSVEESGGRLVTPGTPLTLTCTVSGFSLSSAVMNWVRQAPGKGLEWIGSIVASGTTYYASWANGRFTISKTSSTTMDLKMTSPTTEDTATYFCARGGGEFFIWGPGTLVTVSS VL: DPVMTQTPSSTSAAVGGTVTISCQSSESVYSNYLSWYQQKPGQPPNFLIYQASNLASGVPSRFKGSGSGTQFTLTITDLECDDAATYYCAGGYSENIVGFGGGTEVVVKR
Result: ≤ 1e-05 s⁻¹

Task: Ok, now anti-PACAP antibody Ab12 (antibody, human IgG1, kappa, N297A, V domains shown, full-length rabbit/human chimeric antibody) VH: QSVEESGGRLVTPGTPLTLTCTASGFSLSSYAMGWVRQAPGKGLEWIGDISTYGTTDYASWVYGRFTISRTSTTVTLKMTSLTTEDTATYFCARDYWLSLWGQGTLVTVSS VL: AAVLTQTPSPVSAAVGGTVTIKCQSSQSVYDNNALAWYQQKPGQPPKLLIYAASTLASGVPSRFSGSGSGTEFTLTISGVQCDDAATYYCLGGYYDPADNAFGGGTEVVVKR
Result: ≤ 1e-05 s⁻¹

Taken from patent US20190233498A1.
